Reported shrunken log2 fold change is given for each of the following sequences.
# System: Escherichia coli TOP10;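 note: peptides expressed intracellularly from a pBAD plasmid library in pooled LB shake-flask culture, induced with 0.3% L-arabinose, DNA abundance read by NGS, three biological replicates, DESeq2 with apeglm shrinkage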
# test-method-notes: shrunken log2 fold change of peptide-encoding DNA abundance (4.5 h post-induction vs induction); higher = less antimicrobial activity (less host growth inhibition)
# details: time post-induction: 4.5 h; library: site-saturation at positions 5, 18, 19, 20

# record-sequence, shrunken log2 fold change
rows = [
    ("RRIRYRPPRLPRPRPRPLNHPRP", -0.796),
    ("RRIRTRPPRLPRPRPRPELWPRP", -0.142),
    ("RRIRIRPPRLPRPRPRPDVEPRP", -0.054),
    ("RRIRIRPPRLPRPRPRPCFNPRP", -0.87),
    ("RRIRPRPPRLPRPRPRPHKPPRP", -0.0376),
    ("RRIRFRPPRLPRPRPRPNFRPRP", 0.157),
    ("RRIRVRPPRLPRPRPRPTGNPRP", 2.77),
    ("RRIRARPPRLPRPRPRPPQNPRP", 1.05),
    ("RRIRMRPPRLPRPRPRPYPKPRP", 0.0427),
    ("RRIRRRPPRLPRPRPRPWFWPRP", 1.76),
    ("RRIRHRPPRLPRPRPRPFSMPRP", -0.0138),
    ("RRIRDRPPRLPRPRPRPCIPPRP", -0.123),
    ("RRIRKRPPRLPRPRPRPGEEPRP", 0.108),
    ("RRIRARPPRLPRPRPRPFDCPRP", -0.0326),
    ("RRIRPRPPRLPRPRPRPRKFPRP", -0.188),
    ("RRIRRRPPRLPRPRPRPITWPRP", -0.0299),
    ("RRIRHRPPRLPRPRPRPKDEPRP", 0.0349),
    ("RRIRGRPPRLPRPRPRPTVSPRP", 0.731),
    ("RRIRFRPPRLPRPRPRPCKFPRP", -0.0298),
    ("RRIRIRPPRLPRPRPRPSCWPRP", -0.322),
    ("RRIRPRPPRLPRPRPRPQIFPRP", -0.137),
    ("RRIRRRPPRLPRPRPRPYNFPRP", -0.642),
    ("RRIRWRPPRLPRPRPRPFYNPRP", -0.242),
    ("RRIRYRPPRLPRPRPRPTYSPRP", -0.443),
    ("RRIRFRPPRLPRPRPRPTWNPRP", -0.166),
    ("RRIRSRPPRLPRPRPRPKGKPRP", 0.0401),
    ("RRIRNRPPRLPRPRPRPSRPPRP", 0.112),
    ("RRIRTRPPRLPRPRPRPHAFPRP", -0.128),
    ("RRIRWRPPRLPRPRPRPHFMPRP", -0.398),
    ("RRIRARPPRLPRPRPRPDLVPRP", 0.249),
    ("RRIRVRPPRLPRPRPRPDNKPRP", -0.581),
    ("RRIRDRPPRLPRPRPRPTMQPRP", 0.625),
    ("RRIRVRPPRLPRPRPRPWIGPRP", -0.166),
    ("RRIRFRPPRLPRPRPRPMFPPRP", -0.368),
    ("RRIRTRPPRLPRPRPRPLIVPRP", -0.438),
    ("RRIRERPPRLPRPRPRPIMQPRP", -0.164),
    ("RRIRCRPPRLPRPRPRPESLPRP", -0.11),
    ("RRIRTRPPRLPRPRPRPAEGPRP", 0.164),
    ("RRIRMRPPRLPRPRPRPHLLPRP", 0.137),
    ("RRIRRRPPRLPRPRPRPCSYPRP", -0.19),
    ("RRIRGRPPRLPRPRPRPEQWPRP", 0.346),
    ("RRIRYRPPRLPRPRPRPLFDPRP", 0.802),
    ("RRIRVRPPRLPRPRPRPSTHPRP", -0.573),
    ("RRIRGRPPRLPRPRPRPQVNPRP", 0.0954),
    ("RRIRCRPPRLPRPRPRPQSYPRP", -0.308),
    ("RRIRRRPPRLPRPRPRPSYAPRP", 0.0616),
    ("RRIRERPPRLPRPRPRPNLYPRP", -0.022),
    ("RRIRYRPPRLPRPRPRPHCTPRP", -0.372),
    ("RRIRVRPPRLPRPRPRPCEVPRP", -0.0542),
    ("RRIRKRPPRLPRPRPRPYNKPRP", -0.626),
    ("RRIRRRPPRLPRPRPRPCSHPRP", -0.18),
    ("RRIRWRPPRLPRPRPRPDDMPRP", -0.147),
    ("RRIRARPPRLPRPRPRPADIPRP", -0.245),
    ("RRIRIRPPRLPRPRPRPTDWPRP", 0.0724),
    ("RRIRCRPPRLPRPRPRPGFMPRP", -0.429),
    ("RRIRHRPPRLPRPRPRPTDDPRP", 0.0853),
    ("RRIRWRPPRLPRPRPRPNWNPRP", -0.0303),
    ("RRIRIRPPRLPRPRPRPGQNPRP", -0.0607),
    ("RRIRNRPPRLPRPRPRPHSKPRP", -0.117),
    ("RRIRQRPPRLPRPRPRPDRHPRP", -0.182),
    ("RRIRQRPPRLPRPRPRPNFSPRP", -0.23),
    ("RRIRFRPPRLPRPRPRPMPLPRP", -0.417),
    ("RRIRKRPPRLPRPRPRPNKIPRP", 0.0339),
]
